assay: t1/2 in rat plasma after oral dose (10 mg/kg); type: ADME, organism-based
METRIC: log10(half-life) (log10 of the value in h)

STRUCTURE SMILES: N#C/C(C(=O)Nc1ccc(Br)cc1)=C(/O)C1CC1
METRIC: log10(half-life)
RECORDED VALUE: 1.30
--
STRUCTURE SMILES: Cc1cc(NC(=O)/C(C#N)=C(\O)C2CC2)ccc1Cl
METRIC: log10(half-life)
RECORDED VALUE: 0.30
--
STRUCTURE SMILES: N#C/C(C(=O)Nc1ccc(C#Cc2ccc(Cl)cc2)cc1)=C(/O)C1CC1
METRIC: log10(half-life)
RECORDED VALUE: 1.92
--
STRUCTURE SMILES: Cc1cc(NC(=O)/C(C#N)=C(\O)C2CC2)ccc1C(F)(F)C(F)(F)F
METRIC: log10(half-life)
RECORDED VALUE: 1.00
--
STRUCTURE SMILES: Cc1cc(NC(=O)/C(C#N)=C(\O)C2CC2)ccc1SC(F)(F)F
METRIC: log10(half-life)
RECORDED VALUE: 1.11
--
STRUCTURE SMILES: N#C/C(C(=O)Nc1ccc(Cl)cc1)=C(/O)C1CC1
METRIC: log10(half-life)
RECORDED VALUE: 1.34
--
STRUCTURE SMILES: Cc1cc(NC(=O)/C(C#N)=C(\O)C2CC2)ccc1C(F)(F)F
METRIC: log10(half-life)
RECORDED VALUE: 0.60
--
STRUCTURE SMILES: Cc1cc(NC(=O)/C(C#N)=C(\O)C2CC2)ccc1Br
METRIC: log10(half-life)
RECORDED VALUE: 0.60
--
STRUCTURE SMILES: CCc1cc(NC(=O)/C(C#N)=C(\O)C2CC2)ccc1C(F)(F)F
METRIC: log10(half-life)
RECORDED VALUE: 0.78
--
STRUCTURE SMILES: Cc1cc(NC(=O)/C(C#N)=C(\O)C2CC2)ccc1OC(F)(F)F
METRIC: log10(half-life)
RECORDED VALUE: 0.60
--
STRUCTURE SMILES: N#C/C(C(=O)Nc1ccc(OC(F)(F)F)cc1)=C(/O)C1CC1
METRIC: log10(half-life)
RECORDED VALUE: 1.34
--
STRUCTURE SMILES: N#C/C(C(=O)Nc1ccc(S(=O)(=O)C(F)(F)F)cc1)=C(/O)C1CC1
METRIC: log10(half-life)
RECORDED VALUE: 1.15
--
STRUCTURE SMILES: N#C/C(C(=O)Nc1ccc([N+](=O)[O-])cc1)=C(/O)C1CC1
METRIC: log10(half-life)
RECORDED VALUE: 0.60
--
STRUCTURE SMILES: N#C/C(C(=O)Nc1ccc(Oc2ccc(Cl)cc2)cc1)=C(/O)C1CC1
METRIC: log10(half-life)
RECORDED VALUE: 1.59
